Values from ChEMBL document CHEMBL4043208

inhibition for assorted molecules
Tested on: Bacillus subtilis subsp. subtilis str. 168
assaySummary: Inhibition of Bacillus subtilis 168 RNA polymerase subunit beta' CH region interaction with full length sigmaA at 15 uM by ELISA relative to control
All answers are understood in %, so give the number only.

molecularString	measuredTarget	outputUnit	inhibition
COc1cc(OC)c2cc(C(=O)O)[nH]c2c1C=C1C(=O)NC(=O)NC1=O	Bacillus subtilis subsp. subtilis str. 168	%	28
COc1cc(OC)c2c(-c3ccccc3)c[nH]c2c1C=C1C(=O)NC(=S)NC1=O	Bacillus subtilis subsp. subtilis str. 168	%	14
C=CCN1C(=O)/C(=C/c2c(OC)cc(OC)c3cc(C(=O)OC)[nH]c23)SC1=S	Bacillus subtilis subsp. subtilis str. 168	%	46
C=CCN1C(=O)/C(=C/c2c(OC)cc(OC)c3c(-c4ccc(Cl)cc4)c[nH]c23)SC1=S	Bacillus subtilis subsp. subtilis str. 168	%	34
C=CCN1C(=O)/C(=C/c2c(OC)cc(OC)c3cc(C(=O)OCc4ccccc4)[nH]c23)SC1=S	Bacillus subtilis subsp. subtilis str. 168	%	63

Problem: Requested field: inhibition. Item: `COc1cc(OC)c2cc(C(=O)O)[nH]c2c1C=C1C(=O)NC(=S)NC1=O`
Solution: 71

Problem: Requested field: inhibition. Item: `COC(=O)c1cc2c(OC)cc(OC)c(C=C3C(=O)NC(=O)NC3=O)c2[nH]1`
Solution: 28

Problem: Requested field: inhibition. Item: `COC(=O)c1cc2c(OC)cc(OC)c(C=C3C(=O)NC(=S)NC3=O)c2[nH]1`
Solution: 17
